Source of measurements: patent US20240116985A1

# pIC50 per entry
Molecular target: T1, full-length beta-Catenin (Uniprot ID P35222) (Homo sapiens (Human), UniProt P35222 1-781)
T1 construct: also called bCat; B-Catenin
T1 sequence: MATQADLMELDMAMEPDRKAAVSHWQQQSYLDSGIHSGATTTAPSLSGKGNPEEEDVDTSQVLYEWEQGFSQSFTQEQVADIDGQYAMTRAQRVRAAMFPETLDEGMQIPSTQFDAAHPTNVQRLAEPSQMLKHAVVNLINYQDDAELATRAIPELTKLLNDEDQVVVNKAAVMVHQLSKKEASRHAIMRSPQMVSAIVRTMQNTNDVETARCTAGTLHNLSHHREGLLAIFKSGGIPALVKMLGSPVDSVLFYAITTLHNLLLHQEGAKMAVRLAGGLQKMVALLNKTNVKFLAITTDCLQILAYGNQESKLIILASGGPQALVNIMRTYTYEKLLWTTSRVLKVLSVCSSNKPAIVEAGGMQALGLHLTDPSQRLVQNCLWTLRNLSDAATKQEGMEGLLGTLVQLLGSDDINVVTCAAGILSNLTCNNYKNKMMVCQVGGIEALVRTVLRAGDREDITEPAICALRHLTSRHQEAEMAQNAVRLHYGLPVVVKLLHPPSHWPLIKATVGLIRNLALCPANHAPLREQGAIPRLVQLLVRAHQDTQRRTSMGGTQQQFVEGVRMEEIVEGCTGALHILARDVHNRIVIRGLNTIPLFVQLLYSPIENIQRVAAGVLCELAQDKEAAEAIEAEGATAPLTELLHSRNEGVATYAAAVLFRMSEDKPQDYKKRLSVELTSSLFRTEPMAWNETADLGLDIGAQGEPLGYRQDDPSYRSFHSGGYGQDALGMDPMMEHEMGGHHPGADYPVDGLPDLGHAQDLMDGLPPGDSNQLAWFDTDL
Assay: fluorescence polarization competition; full-length beta-catenin, competitor 5FAM-TCF4(10-53) probe
Starred links: 1 amine or outer side, 2 acyl side, 3 side chain; linkers in the order of their positions; H or OH if unused. Positions of bridges follow the written chain, without caps; N, C: chain ends. Non-standard residues stand in square brackets, D forms with d. Primed or numbered codes have the meaning given here. B5(16) = 2-amino-2-(pent-4-en-1-yl)hept-6-enoic acid = 2,2-bis(4-pentenyl)glycine (stitching residue), C=CCCCC(CCCC=C)(N[*:1])C(=O)[*:2]; B5(5) = 2,2-bis(4-pentenyl)glycine, 2-amino-2-(pent-4-en-1-yl)hept-6-enoic acid (stitching residue), C=CCCCC(CCCC=C)(N[*:1])C(=O)[*:2]; B5(9) = 2-amino-2-(pent-4-en-1-yl)hept-6-enoic acid (2,2-bis(4-pentenyl)glycine), C=CCCCC(CCCC=C)(N[*:1])C(=O)[*:2]; B5(19) = 2-amino-2-(pent-4-en-1-yl)hept-6-enoic acid (bis(4-pentenyl)glycine), C=CCCCC(CCCC=C)(N[*:1])C(=O)[*:2]; d(βAsp) = O=C(O)[C@@H](CC(=O)[*:2])N[*:1]; βAsp = O=C(O)[C@H](CC(=O)[*:2])N[*:1]; Bta = N[C@@H](Cc1csc2ccccc12)C(=O)O; αAllylPro = C=CC[C@@]1(C(=O)O)CCCN1; S8 = C=CCCCCCC[C@](C)(N)C(=O)O
The scale used: pIC50 is minus the common logarithm of the concentration in molar units.

Binder	pIC50
Ac-[αAllylPro]DI[B5(9)][βAsp]EAAFQ[S8]F[Bta]Q-NH2 (staple 1-4, 4-11, Stapled peptide) [I-673]	5.30
Ac-[αAllylPro]DI[B5(19)]DEAQFQ[S8]F[Bta]Q-NH2 (staple 1-4, 4-11, Stapled peptide) [I-663]	7.37
Ac-[αAllylPro]DI[B5(9)]DEAWFQ[S8]F[Bta]Q-NH2 (staple 1-4, 4-11, Stapled peptide) [I-664]	6.00
Ac-[αAllylPro]DI[B5(5)][d(βAsp)]EAAFQ[S8]F[Bta]Q-NH2 (staple 1-4, 4-11, Stapled peptide) [I-674]	5.30
Ac-[αAllylPro][d(βAsp)]I[B5(9)]DEAAFQ[S8]F[Bta]Q-NH2 (staple 1-4, 4-11, Stapled peptide) [I-669]	6.35
Ac-[αAllylPro]DI[B5(16)]DEWAFQ[S8]F[Bta]Q-NH2 (staple 1-4, 4-11, Stapled peptide) [I-655]	6.74

# input Give me measured pIC50, please, for this binder: XDIXDEASFQXFXQ (not fully specified; Ac-PL3-Asp-Ile-B5-Asp-Glu-Ala-Ser-Phe-Gln-S8-Phe-BztA-Gln-NH2; N-terminal acetyl, C-terminal amide; PL3(1), B5(4), S8(11) stapled by olefin metathesis (1-4 and 4-11); BztA at 13, Stapled peptide) [I-662]
# output 7.59

# input Give me measured pIC50, please, for this binder: XDIXDEASFQXFXQ (not fully specified; Ac-PL3-Asp-Ile-B5-Asp-Glu-Ala-Ser-Phe-Gln-S8-Phe-BztA-Gln-NH2; N-terminal acetyl, C-terminal amide; PL3(1), B5(4), S8(11) stapled by olefin metathesis (1-4 and 4-11); BztA at 13, Stapled peptide) [I-661]
# output 7.35

# input Give me measured pIC50, please, for this binder: Ac-[αAllylPro][d(βAsp)]I[B5(9)]DEAAFQ[S8]F[Bta]Q-NH2 (staple 1-4, 4-11, Stapled peptide) [I-668]
# output 6.17

# input Give me measured pIC50, please, for this binder: XDIXDEALFQXFXQ (not fully specified; Ac-PL3-Asp-Ile-B5-Asp-Glu-Ala-Leu-Phe-Gln-S8-Phe-BztA-Gln-NH2; N-terminal acetyl, C-terminal amide; PL3(1), B5(4), S8(11) stapled by olefin metathesis (1-4 and 4-11); BztA at 13, Stapled peptide) [I-658]
# output 6.26

# input Give me measured pIC50, please, for this binder: Ac-[αAllylPro]DI[B5(16)]DESAFQ[S8]F[Bta]Q-NH2 (staple 1-4, 4-11, Stapled peptide) [I-652]
# output 7.14

# input Give me measured pIC50, please, for this binder: XDIXDEALFQXFXQ (not fully specified; Ac-PL3-Asp-Ile-B5-Asp-Glu-Ala-Leu-Phe-Gln-S8-Phe-BztA-Gln-NH2; N-terminal acetyl, C-terminal amide; PL3(1), B5(4), S8(11) stapled by olefin metathesis (1-4 and 4-11); BztA at 13, Stapled peptide) [I-659]
# output 6.37

# input Give me measured pIC50, please, for this binder: Ac-[αAllylPro]DI[B5(19)]DEAFFQ[S8]F[Bta]Q-NH2 (staple 1-4, 4-11, Stapled peptide) [I-660]
# output 6.26

# input Give me measured pIC50, please, for this binder: Ac-[αAllylPro]DI[B5(9)]DEAWFQ[S8]F[Bta]Q-NH2 (staple 1-4, 4-11, Stapled peptide) [I-665]
# output 6.03
